B1: tRNA (parent)
chain: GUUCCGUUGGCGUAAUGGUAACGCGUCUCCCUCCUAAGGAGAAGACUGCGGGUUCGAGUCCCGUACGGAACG

Variants of: B1
EXPERIMENT_NOTES: yeast fitness relative to wild type (ratio to wild type); higher = fitter; tRNA-Arg(CCU), competitive growth, 37 C, YPD
Variants at the floor of the assay were thinned out.
Reported yeast fitness values follow for various variants

VARIANT_ANNOTATION | CENSORING_QUALIFIER | yeast fitness
U3A C4G G6A U26G C66U | ≤ | 0.5
C30U C31U A40C A65C | ≤ | 0.5
U3A A15C G17C | = | 0.507
G39C G44C G52C | = | 0.623
C22A C30U A42C A57U G67A A70U | ≤ | 0.5
C4G C49G G56U U64C A65C A70C | = | 0.635
C5U U28C C29G | ≤ | 0.5
C11A A14G C31G C34G C61U | ≤ | 0.5
U8C G41C A69U | = | 0.637
C31G G44A U47A G51C C66U | ≤ | 0.5
G41C G48C A69C | = | 0.606
C24U G48A | = | 0.915
A14G A57G G68C | = | 0.616
C62U A69U | = | 0.955
G17C C29G G39A | ≤ | 0.5
U3C G6C G38C C46A | ≤ | 0.5

Hey, just so you know, these numbers are from the RNAGym collection of RNA variant scans (doi:10.1126/science.aae0568).
